# tested.on: Mu-type opioid receptor (Rattus norvegicus, UniProt P33535)
# Sequence (P33535 whole entry): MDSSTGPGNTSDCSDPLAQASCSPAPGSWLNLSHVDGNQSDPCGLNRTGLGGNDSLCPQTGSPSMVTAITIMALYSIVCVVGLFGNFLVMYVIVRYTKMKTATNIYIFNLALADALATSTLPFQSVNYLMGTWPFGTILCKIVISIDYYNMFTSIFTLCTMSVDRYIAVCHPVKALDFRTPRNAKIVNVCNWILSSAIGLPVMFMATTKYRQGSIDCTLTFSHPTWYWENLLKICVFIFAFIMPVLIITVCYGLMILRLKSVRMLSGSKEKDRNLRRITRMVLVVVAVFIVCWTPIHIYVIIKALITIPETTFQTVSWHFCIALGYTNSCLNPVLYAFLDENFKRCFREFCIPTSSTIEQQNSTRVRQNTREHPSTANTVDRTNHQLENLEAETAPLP
pKi: −log10 of the molar value.
Assign class by pKi: not lower than 7 means true (1); lower than 7 means false (0).

Worked examples, 3 molecules total:
>  <compound.string>
CC(C)C[C@H](NC(=O)[C@H](Cc1ccccc1)NC(=O)CNC(=O)[C@H](NC(=O)[C@@H](N)Cc1ccc(O)cc1)[C@@H](C)OC(C)(C)C)C(=O)N[C@H](C(=O)O)[C@@H](C)O

>  <assigned.label>
false (0)

$$$$
>  <compound.string>
CC(C)C[C@H](NC(=O)[C@H](Cc1ccccc1)NC(=O)CNC(=O)[C@@H](CO)NC(=O)[C@@H](N)Cc1ccc(O)cc1)C(=O)N[C@H](C(=O)O)[C@@H](C)OC(C)(C)C

>  <assigned.label>
false (0)

$$$$
>  <compound.string>
CC(C)C[C@H](NC(=O)[C@H](Cc1ccccc1)NC(=O)CNC(=O)[C@@H](NC(=O)[C@@H](N)Cc1ccc(O)cc1)[C@@H](C)OC(C)(C)C)C(=O)N[C@H](C(=O)O)[C@@H](C)O

>  <assigned.label>
false (0)

$$$$

# check: pKi of `CC(C)C[C@H](NC(=O)[C@H](Cc1ccccc1)NC(=O)CNC(=O)[C@@H](NC(=O)[C@@H](N)Cc1ccc(O)cc1)[C@@H](C)O)C(=O)N[C@H](C(=O)O)[C@@H](C)O` is greater than or equal to 7
true (1)

// repeat for `CC(C)C[C@H](NC(=O)[C@H](Cc1ccccc1)NC(=O)CNC(=O)[C@@H](COCc1ccccc1)NC(=O)[C@@H](N)Cc1ccc(O)cc1)C(=O)N[C@H](C(=O)O)[C@@H](C)O` and report
true (1)

// repeat for `CC(C)C[C@H](NC(=O)[C@H](Cc1ccccc1)NC(=O)CNC(=O)[C@@H](COC(C)(C)C)NC(=O)[C@@H](N)Cc1ccc(O)cc1)C(=O)N[C@H](C(=O)O)[C@@H](C)OC(C)(C)C` and report
false (0)

// repeat for `CC(C)C[C@H](NC(=O)[C@H](Cc1ccccc1)NC(=O)CNC(=O)[C@@H](COC(C)(C)C)NC(=O)[C@@H](N)Cc1ccc(O)cc1)C(=O)N[C@H](C(=O)O)[C@@H](C)O` and report
false (0)
